# TARGET_OF_ASSAY: T1, human CD3 (human, UniProt P07766 23-207)
# T1 construct: whole, on cells; also called CD3 on human T-cells
# PROTOCOL_SUMMARY: cell binding, human T-cells
ENDPOINT_LABEL: pKd
Just so you know, pKd here is -log10 of the concentration in molar units; reply with that number alone.

{"BINDER": "Fab1-HK129-LL157-pAF (Fab, V domains shown, pAF at LL157 (Kabat); pAF at HK129 (Kabat), From E. coli; double pAF variant, unconjugated; also called Fab1-HK129pAF-LL157pAF) VH: EVQLVESGGGLVQPGGSLRLSCAASGFTFNTYAMNWVRQAPGKGLEWVARIRSKYNNYATYYADSVKDRFTISRDDSKNILYLQMNSLKTEDTAVYYCVRHGNFGNSYVSWFAYWGQGTLVTVSS VL: QAVVTQEPSLTVSPGGTVTLTCRSSTGAVTTSNYANWVQQKPGQAPRGLIGGTNKRAPGTPARFSGSLLGGKAALTLSGAQPEDEAEYYCALWYSNLWVFGGGTKLTVLG", "pKd": 9.22}
{"BINDER": "Fab1-HK129-Folate (Fab, V domains shown, pAF at HK129 (Kabat) conjugated to folate (oxime), From E. coli; also called Folate lead; parent control) VH: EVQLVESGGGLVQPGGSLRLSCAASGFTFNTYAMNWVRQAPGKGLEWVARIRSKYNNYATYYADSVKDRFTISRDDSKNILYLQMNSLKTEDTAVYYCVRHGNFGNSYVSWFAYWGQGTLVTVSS VL: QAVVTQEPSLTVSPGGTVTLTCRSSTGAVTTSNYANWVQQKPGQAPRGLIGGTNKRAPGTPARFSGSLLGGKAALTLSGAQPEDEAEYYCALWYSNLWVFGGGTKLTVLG", "pKd": 8.82}
{"BINDER": "Fab1-HK129-LL157-BiFolate-Bi5KPEG (Fab, V domains shown, pAF at LL157 (Kabat) conjugated to a bifunctional linker carrying folate and 5K PEG (oxime); pAF at HK129 (Kabat) conjugated to a bifunctional linker carrying folate and 5K PEG (oxime), From E. coli; carries two folates and two 5K PEG; also called Fab1-HK129-LL157-Bi5KPEG-BiFolate) VH: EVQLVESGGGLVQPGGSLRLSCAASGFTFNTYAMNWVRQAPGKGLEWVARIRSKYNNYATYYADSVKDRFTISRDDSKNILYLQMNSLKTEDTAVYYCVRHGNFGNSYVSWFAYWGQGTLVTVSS VL: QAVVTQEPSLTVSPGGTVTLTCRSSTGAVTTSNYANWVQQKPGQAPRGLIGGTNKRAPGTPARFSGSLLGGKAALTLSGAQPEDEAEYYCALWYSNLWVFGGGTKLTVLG", "pKd": 8.48}

Attention now turns to another entry.
Given the entry Fab1-HK129-5KPEG-Folate (Fab, V domains shown, pAF at HK129 (Kabat) conjugated to a bifunctional linker carrying folate and a linear 5K PEG (oxime), From E. coli; also called Fab1-5KPEG-Folate) VH: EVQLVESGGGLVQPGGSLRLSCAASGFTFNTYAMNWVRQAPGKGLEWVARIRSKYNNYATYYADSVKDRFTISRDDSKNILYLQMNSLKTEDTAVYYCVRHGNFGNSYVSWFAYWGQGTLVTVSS VL: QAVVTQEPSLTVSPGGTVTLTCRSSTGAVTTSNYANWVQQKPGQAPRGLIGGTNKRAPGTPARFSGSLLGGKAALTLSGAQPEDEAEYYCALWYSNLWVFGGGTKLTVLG , report its measured pKd.
8.63
